# TEST_PROTOCOL: WHO-TDR: Cytotoxicity
# Type: toxicity, cell-based
# TEST_PARAMETERS: human, MRC5 cells
Consider the following molecules; for each one, report its IC50.

A selection of reference data follows.
* O=C(NCCc1csc(-c2ccccc2)n1)C1CCCC1 | > 9.01 µg/mL
* Cc1nc2sc(C)c(C)n2c(=O)c1NC(=O)CC(c1ccccc1)c1ccccc1 | > 12.5 µg/mL
* C=CCN1C(=O)C(C)(C)COc2cc(NS(=O)(=O)C3CCCCC3)ccc21 | > 11.8 µg/mL
* Cc1ccc(SCC(=O)Nc2ccccc2-c2nc3ccccc3[nH]2)cc1 | > 11.2 µg/mL
* COc1ccc(-c2cn3c(C(=O)Nc4cc(C)ccc4C)csc3n2)cc1 | > 11.3 µg/mL

Continue with the next molecule.
Prompt: Return reported IC50; argument: Cc1ccc(S(=O)(=O)CC(=O)Nc2cccc(Cl)c2)cc1
Completion: > 9.71 µg/mL

###

Consider the following molecules; for each one, report its IC50.
# System: Trypanosoma cruzi
# TEST_PROTOCOL: WHO-TDR: Chagas disease
# Assay type: functional, organism-based, Homo sapiens
# TEST_PARAMETERS: MRC5

A selection of reference data follows.
• O=C(NCCC1=CCCCC1)c1n[nH]c2ccccc12 = > 8.08 µg/mL
• O=C(c1ccc2c(c1)OCO2)C1C(=O)N(c2ccccc2)N=C1c1ccccc1 (stereo not drawn) = > 11.5 µg/mL
• O=C(Cc1csc(NC(=O)c2ccc(=O)[nH]c2)n1)NCc1cccs1 = > 11.2 µg/mL
• O=C(CCCn1nc(-c2ccc(F)cc2)ccc1=O)Nc1ccc(C(F)(F)F)cc1 = > 12.6 µg/mL
• CN1CCN(C(CNC(=O)COc2ccccc2F)c2ccc3c(c2)CCN3C)CC1 (stereo not drawn) = > 12.8 µg/mL
• CCOC(=O)c1ccccc1NC(=O)CSc1ncc(CO)n1Cc1ccc(OC)cc1 = > 13.7 µg/mL

Please state, for each entry, its recorded IC50.
1. CCOC(=O)Cn1/c(=N/C(=O)CSC(C)=O)sc2ccccc21
2. CC(C)c1ccc2nc(NC(=O)c3ccc(C#N)cc3)sc2c1

Completion:
1: > 10.6 µg/mL; 2: > 7 µg/mL

###

# System: Plasmodium falciparum K1
# TEST_PROTOCOL: WHO-TDR: Malaria
# Assay type: functional, organism-based, Homo sapiens
# TEST_PARAMETERS: Erythrocyte
QUANTITY_MEASURED: IC50

A selection of reference data follows.
- CCn1ccc(C(=O)Nc2nc(-c3cc(Cl)ccc3Cl)cs2)n1: > 11 µg/mL
- Cc1cc(-c2nnc(NC(=O)c3nc4ccccc4s3)o2)nn1C: > 10.2 µg/mL

Continue with the next compound.
Prompt: Return reported IC50; argument: O=C(CCc1csc(NC(=O)c2ccco2)n1)NCc1c(F)cccc1F
Completion: > 11.7 µg/mL
